Sourced from patent US4299822A

Assay: hydrolytic stability in aqueous buffers, TLC quantification of N-trifluoroacetyladriamycin
Type: physicochemical
Settings: aqueous buffer, pH 7.4, pH 7.40, 4° C., 24 hours, dark; read-out: Percent hydrolyzed
Recorded degraded at 24 h values for a group of compounds are listed next.
metric: degraded at 24 h (%)

* COc1cccc2c1C(=O)c1c(O)c3c(c(O)c1C2=O)CC(O)(C(=O)COC(=O)CCCCC(=O)O)CC3OC1CC(NC(=O)C(F)(F)F)C(O)C(C)O1 (centres unmarked) | 0
* COc1cccc2c1C(=O)c1c(O)c3c(c(O)c1C2=O)CC(O)(C(=O)COC(=O)CCCC(=O)O)CC3OC1CC(NC(=O)C(F)(F)F)C(O)C(C)O1 (centres unmarked) | 0

----------
Experiment: hydrolytic stability in aqueous buffers, TLC quantification of N-trifluoroacetyladriamycin
Assay type: physicochemical
Details: aqueous buffer, pH 8, pH 8.00, 27° C., 24 hours, dark; read-out: Percent hydrolyzed
metric: degraded at 24 h (%)

- COc1cccc2c1C(=O)c1c(O)c3c(c(O)c1C2=O)CC(O)(C(=O)COC(=O)CCCCC(=O)O)CC3OC1CC(NC(=O)C(F)(F)F)C(O)C(C)O1 (stereo not shown): 1

----------
Measured solubility accompanies every entry in the list below.
Assay: solubility in water
Conditions: phosphate buffer, pH 7.4, aqueous buffer
metric: solubility (mg/mL)

• COc1cccc2c1C(=O)c1c(O)c3c(c(O)c1C2=O)CC(O)(C(=O)COC(=O)CCCC(=O)O)CC3OC1CC(NC(=O)C(F)(F)F)C(O)C(C)O1 (centres unmarked) = 65
• COc1cccc2c1C(=O)c1c(O)c3c(c(O)c1C2=O)CC(O)(C(=O)COC(=O)CCCCC(=O)O)CC3OC1CC(NC(=O)C(F)(F)F)C(O)C(C)O1 (centres unmarked) = 60

----------
Assay: hydrolytic stability in aqueous buffers, TLC quantification of N-trifluoroacetyladriamycin
Type: physicochemical
Conditions: aqueous buffer, pH 9, pH 9.00, 27° C., 24 hours, dark; read-out: Percent hydrolyzed
Description: The results were as follows:
metric: degraded at 24 h (%)

- COc1cccc2c1C(=O)c1c(O)c3c(c(O)c1C2=O)CC(O)(C(=O)COC(=O)CCCC(=O)O)CC3OC1CC(NC(=O)C(F)(F)F)C(O)C(C)O1 (stereo not shown): 3

----------
Test: hydrolytic stability in aqueous buffers, TLC quantification of N-trifluoroacetyladriamycin
Type: physicochemical
Conditions: aqueous buffer, pH 8, pH 8.00, 4° C., 24 hours, dark; read-out: Percent hydrolyzed
metric: degraded at 24 h (%)

• COc1cccc2c1C(=O)c1c(O)c3c(c(O)c1C2=O)CC(O)(C(=O)COC(=O)CCCCC(=O)O)CC3OC1CC(NC(=O)C(F)(F)F)C(O)C(C)O1 (stereo not shown) = 0.3
